- measuredTarget: human TLR4 (Homo sapiens, UniProt O00206+Q9Y6Y9)
- Construct: host or cells: HEK-Blue hTLR4 cell line
- Sequence (O00206 24-839): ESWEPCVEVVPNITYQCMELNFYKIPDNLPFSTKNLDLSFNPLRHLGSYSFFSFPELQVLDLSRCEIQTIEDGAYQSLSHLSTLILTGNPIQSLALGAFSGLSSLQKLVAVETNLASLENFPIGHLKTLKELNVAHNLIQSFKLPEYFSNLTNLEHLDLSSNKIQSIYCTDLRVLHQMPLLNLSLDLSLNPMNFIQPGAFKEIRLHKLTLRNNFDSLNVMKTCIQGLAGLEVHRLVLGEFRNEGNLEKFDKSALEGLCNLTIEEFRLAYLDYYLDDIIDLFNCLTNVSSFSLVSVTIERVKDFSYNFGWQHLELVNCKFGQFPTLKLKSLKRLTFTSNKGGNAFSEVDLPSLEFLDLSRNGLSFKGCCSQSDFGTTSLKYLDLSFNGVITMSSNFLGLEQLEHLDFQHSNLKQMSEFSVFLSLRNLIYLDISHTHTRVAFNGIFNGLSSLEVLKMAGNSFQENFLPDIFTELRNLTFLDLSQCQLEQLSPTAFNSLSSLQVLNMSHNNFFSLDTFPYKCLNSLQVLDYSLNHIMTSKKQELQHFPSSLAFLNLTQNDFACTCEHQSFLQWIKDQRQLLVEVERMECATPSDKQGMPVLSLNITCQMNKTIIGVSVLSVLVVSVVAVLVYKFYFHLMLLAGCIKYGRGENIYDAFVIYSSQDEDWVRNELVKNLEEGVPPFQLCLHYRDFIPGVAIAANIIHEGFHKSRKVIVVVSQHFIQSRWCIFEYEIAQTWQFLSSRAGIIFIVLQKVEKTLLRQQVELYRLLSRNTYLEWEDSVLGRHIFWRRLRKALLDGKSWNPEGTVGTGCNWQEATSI
- Sequence (Q9Y6Y9 17-160 limits assumed): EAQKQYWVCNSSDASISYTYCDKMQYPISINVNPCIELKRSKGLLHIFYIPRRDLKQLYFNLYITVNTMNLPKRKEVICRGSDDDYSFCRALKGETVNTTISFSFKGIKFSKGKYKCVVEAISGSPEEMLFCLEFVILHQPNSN
- methodNotes: Human TLR4 reporter gene assay (Test 1)
- Assay type: cell-based
- experimentalContext: HEK-Blue hTLR4 cell line, SEAP reporter, 37° C. 16-20 hours, 0.1% DMSO; concentration giving half of maximal SEAP level induced with LPS
recordedMetric: EC50 (nM)

a = CCCCCCCCCCC[C@H](CC(=O)NC1C(OC[C@H](NC(=O)C[C@@H](CCCCCCCCCCC)OC(=O)CCCCCCCCC)C(=O)O)OC(CO)C(O)C1OC(=O)C[C@@H](CCCCCCCCCCC)OC(=O)CCCCCCCCc1ccccc1)OC(=O)CCCCCCCCC (stereo partly drawn) [Example 2]
b = CCCCCCCCCCC[C@H](CC(=O)NC(COC1OC(CO)C(O)C(OC(=O)C[C@@H](CCCCCCCCCCC)OC(=O)CCCCCCCCC)C1NC(=O)C[C@@H](CCCCCCCCCCC)OC(=O)CCCCCCCCC)C(=O)O)OC(=O)CCCCCCCCc1ccccc1 (stereo partly drawn) [Example 5]
Q: Which record shows the lower EC50: the first, a , or the second, b ? Answer format: the label of the selected item.
A: a
